# System: HCT-116 colon
# ASSAY: NCI-60 one-dose screen, 48 h (100 = growth as untreated, 0 = no growth, -100 = all killed)
# MEASUREMENT_SETUP: 10 µM unless noted
The panel holds about 83,000 compounds, 20% with a hit somewhere; the sample as a whole holds those more often.
QUANTITY_KIND: growth (%)
Give the quantity in %, number only.

growth for Cc1cc(-c2ccc(N=Nc3ccc4c(S(=O)(=O)O)cc(S(=O)(=O)O)c(N)c4c3O)c(C)c2)ccc1N=Nc1ccc2c(S(=O)(=O)O)cc(S(=O)(=O)O)c(N)c2c1O is 85.8

growth for C/C(=C\c1ccccc1)c1ccccn1 is 101

growth for CC1=C/C(O)CC(=O)Cc2nc(co2)C(=O)N2CCC=C2C(=O)OC(C(C)C)C(C)/C=C\C(=O)NC/C=C\1 (centres undefined) is 34.3

growth for Cc1cc(-c2cc(C)c(O)c(C)c2)cc(C)c1O is 83.7

----------
# System: MDA-MB-435 melanoma
# ASSAY: NCI-60 one-dose screen, 48 h
# MEASUREMENT_SETUP: 10 µM unless noted
Compounds without any hit were thinned out: in the full panel of roughly 83,000, 20% have a hit. Active and inactive are the calls of the source. The calls were made as follows: active = growth percent below 10; inactive = the rest.
The categories you may choose from are active, inactive

State the result this test recorded for C/C(=C\c1ccccc1)c1ccccn1 .
inactive

State the result this test recorded for Nc1nc(N)c2[nH]cnc2n1 .
inactive

State the result this test recorded for O=c1n(CC2CO2)c(=O)n(CC2CO2)c(=O)n1CC1CO1 (stereo not drawn) .
inactive

State the result this test recorded for O=[N+]([O-])c1cccc(SSc2cccc([N+](=O)[O-])c2)c1 .
inactive

State the result this test recorded for O=C(Cc1ccccc1)c1ccc(O)c(Cl)c1 .
inactive

State the result this test recorded for COc1ccc2cc1Oc1ccc(cc1)C[C@H]1c3cc(c(OC)cc3CCN1C)Oc1c(OC)c(OC)cc3c1[C@H](C2)N(C)CC3 .
inactive

State the result this test recorded for OCC1OC(O)C(O)C(O)C1O (stereo not drawn) .
inactive

State the result this test recorded for COc1cc(C(O)C2C(=O)OCC2C2(c3ccc4c(c3)OCO4)SCCCS2)cc(OC)c1OC (stereo not drawn) .
inactive

State the result this test recorded for CC1CCC(C(C)C)C(NNC(N)=O)C1 (stereo not drawn) .
inactive

State the result this test recorded for Cc1cc(-c2cc(C)c(O)c(C)c2)cc(C)c1O .
active

State the result this test recorded for O=C1OC(c2ccccc2)=N/C1=C\c1ccccc1 .
inactive

State the result this test recorded for CCCCNc1ccc(Nc2ccccc2)cc1 .
inactive

State the result this test recorded for CC1(C)COC(=S)N1 .
inactive

State the result this test recorded for Fc1ccc([I+]c2ccc(F)cc2)cc1 .
inactive

State the result this test recorded for O=C(O)CCCl .
inactive

State the result this test recorded for c1ccc(CNCCNCc2ccccc2)cc1 .
inactive

State the result this test recorded for Cc1ccc(=O)[nH]n1 .
inactive

State the result this test recorded for NC(=O)NCCCC(N)C(=O)O (stereo not drawn) .
inactive

All values here come from PubChem BioAssay (NCI).
